Reference source for all entries: ChEMBL document CHEMBL1155415

System: Trichophyton mentagrophytes
Run Description: Antifungal activity against Trichophyton mentagrophytes after 48 hrs by disk diffusion method
Type: functional
Listed below: diameter of the inhibition zone (DIZ) values for each entry.

{"Molecule": "CCCCC/C=C\\CC[C@H](O)CCCCCCCc1nnc(Nc2ccccc2)o1", "diameter of the inhibition zone (DIZ), mm": 18.7}
{"Molecule": "C=CCCCCCCCCc1nnc(Nc2ccccc2)o1", "diameter of the inhibition zone (DIZ), mm": 16.9}
{"Molecule": "CCCCCCCC/C=C\\CCCCCCCc1nnc(Nc2ccccc2)s1", "diameter of the inhibition zone (DIZ), mm": 20.3}
{"Molecule": "CCCCCCCC/C=C\\CCCCCCCc1nnc(Nc2ccccc2)o1", "diameter of the inhibition zone (DIZ), mm": 20.2}
{"Molecule": "CCCCCC[C@@H](O)C/C=C\\CCCCCCCc1nnc(Nc2ccccc2)o1", "diameter of the inhibition zone (DIZ), mm": 17.5}
{"Molecule": "C=CCCCCCCCCc1nnc(Nc2ccccc2)s1", "diameter of the inhibition zone (DIZ), mm": 14.1}
{"Molecule": "CCCCCCC(O)C/C=C\\CCCCCCCc1nnc(Nc2ccccc2)s1 (centres undefined)", "diameter of the inhibition zone (DIZ), mm": 18.9}
{"Molecule": "CCCCC/C=C\\CCC(O)CCCCCCCc1nnc(Nc2ccccc2)s1 (centres undefined)", "diameter of the inhibition zone (DIZ), mm": 19}
{"Molecule": "COC1=CC(=O)C[C@@H](C)[C@]12Oc1c(Cl)c(OC)cc(OC)c1C2=O", "diameter of the inhibition zone (DIZ), mm": 24}

* * *

Measured diameter of the inhibition zone (DIZ) values are reported for all entries that follow.
Test system: Candida albicans
Run Description: Antifungal activity against Candida albicans after 48 hrs by disk diffusion method
Type: functional

{"Compound": "CCCCCCC(O)C/C=C\\CCCCCCCc1nnc(Nc2ccccc2)s1 (centres undefined)", "Unit Info": "mm", "diameter of the inhibition zone (DIZ)": 25.1}
{"Compound": "CCCCCCCC/C=C\\CCCCCCCc1nnc(Nc2ccccc2)s1", "Unit Info": "mm", "diameter of the inhibition zone (DIZ)": 27.2}
{"Compound": "C=CCCCCCCCCc1nnc(Nc2ccccc2)o1", "Unit Info": "mm", "diameter of the inhibition zone (DIZ)": 24.2}
{"Compound": "CCCCCCCC/C=C\\CCCCCCCc1nnc(Nc2ccccc2)o1", "Unit Info": "mm", "diameter of the inhibition zone (DIZ)": 26.1}
{"Compound": "CCCCC/C=C\\CCC(O)CCCCCCCc1nnc(Nc2ccccc2)s1 (centres undefined)", "Unit Info": "mm", "diameter of the inhibition zone (DIZ)": 24.9}
{"Compound": "CCCCC/C=C\\CC[C@H](O)CCCCCCCc1nnc(Nc2ccccc2)o1", "Unit Info": "mm", "diameter of the inhibition zone (DIZ)": 23.2}
{"Compound": "COC1=CC(=O)C[C@@H](C)[C@]12Oc1c(Cl)c(OC)cc(OC)c1C2=O", "Unit Info": "mm", "diameter of the inhibition zone (DIZ)": 30}
{"Compound": "C=CCCCCCCCCc1nnc(Nc2ccccc2)s1", "Unit Info": "mm", "diameter of the inhibition zone (DIZ)": 19.5}
{"Compound": "CCCCCC[C@@H](O)C/C=C\\CCCCCCCc1nnc(Nc2ccccc2)o1", "Unit Info": "mm", "diameter of the inhibition zone (DIZ)": 23.3}

* * *

Tested on: Talaromyces marneffei
Run Description: Antifungal activity against Penicillium marneffei after 48 hrs by disk diffusion method
Assay type: functional
Property: diameter of the inhibition zone (DIZ); scope: individual molecules
Readout Name: diameter of the inhibition zone (DIZ) (mm)

{"Molecule": "COC1=CC(=O)C[C@@H](C)[C@]12Oc1c(Cl)c(OC)cc(OC)c1C2=O", "Target": "Talaromyces marneffei", "Readout Name": "diameter of the inhibition zone (DIZ)", "Unit Info": "mm", "Value Reported": 20}
{"Molecule": "C=CCCCCCCCCc1nnc(Nc2ccccc2)s1", "Target": "Talaromyces marneffei", "Readout Name": "diameter of the inhibition zone (DIZ)", "Unit Info": "mm", "Value Reported": 10.2}
{"Molecule": "CCCCCC[C@@H](O)C/C=C\\CCCCCCCc1nnc(Nc2ccccc2)o1", "Target": "Talaromyces marneffei", "Readout Name": "diameter of the inhibition zone (DIZ)", "Unit Info": "mm", "Value Reported": 13.9}
{"Molecule": "CCCCC/C=C\\CC[C@H](O)CCCCCCCc1nnc(Nc2ccccc2)o1", "Target": "Talaromyces marneffei", "Readout Name": "diameter of the inhibition zone (DIZ)", "Unit Info": "mm", "Value Reported": 16.3}
{"Molecule": "CCCCCCCC/C=C\\CCCCCCCc1nnc(Nc2ccccc2)s1", "Target": "Talaromyces marneffei", "Readout Name": "diameter of the inhibition zone (DIZ)", "Unit Info": "mm", "Value Reported": 16.1}
{"Molecule": "CCCCCCCC/C=C\\CCCCCCCc1nnc(Nc2ccccc2)o1", "Target": "Talaromyces marneffei", "Readout Name": "diameter of the inhibition zone (DIZ)", "Unit Info": "mm", "Value Reported": 15.9}
{"Molecule": "CCCCCCC(O)C/C=C\\CCCCCCCc1nnc(Nc2ccccc2)s1 (centres undefined)", "Target": "Talaromyces marneffei", "Readout Name": "diameter of the inhibition zone (DIZ)", "Unit Info": "mm", "Value Reported": 15.1}
{"Molecule": "CCCCC/C=C\\CCC(O)CCCCCCCc1nnc(Nc2ccccc2)s1 (centres undefined)", "Target": "Talaromyces marneffei", "Readout Name": "diameter of the inhibition zone (DIZ)", "Unit Info": "mm", "Value Reported": 15.2}
{"Molecule": "C=CCCCCCCCCc1nnc(Nc2ccccc2)o1", "Target": "Talaromyces marneffei", "Readout Name": "diameter of the inhibition zone (DIZ)", "Unit Info": "mm", "Value Reported": 15.2}

* * *

Tested on: Staphylococcus aureus
Run Description: Antibacterial activity against Staphylococcus aureus ATCC 25923 after 24 hrs by disc diffusion method
Format: functional
Returns True if the recorded diameter of the inhibition zone (DIZ) is greater than or equal to 20 mm, and False otherwise.

{"Molecule": "CCCCCCC(O)C/C=C\\CCCCCCCc1nnc(Nc2ccccc2)s1 (stereo not drawn)", "Class Label": "True"}
{"Molecule": "CCCCCCCC/C=C\\CCCCCCCc1nnc(Nc2ccccc2)s1", "Class Label": "False"}
{"Molecule": "CCCCCCCC/C=C\\CCCCCCCc1nnc(Nc2ccccc2)o1", "Class Label": "False"}
{"Molecule": "C=CCCCCCCCCc1nnc(Nc2ccccc2)s1", "Class Label": "False"}
{"Molecule": "CCCCC/C=C\\CC[C@H](O)CCCCCCCc1nnc(Nc2ccccc2)o1", "Class Label": "True"}
{"Molecule": "CCCCC/C=C\\CCC(O)CCCCCCCc1nnc(Nc2ccccc2)s1 (stereo not drawn)", "Class Label": "True"}
{"Molecule": "C=CCCCCCCCCc1nnc(Nc2ccccc2)o1", "Class Label": "False"}

* * *

Recorded diameter of the inhibition zone (DIZ) for the following compounds
Test system: Escherichia coli
Run Description: Antibacterial activity against Escherichia coli ATCC 25922 after 24 hrs by disc diffusion method
Type: functional

{"Compound": "CCCCCCCC/C=C\\CCCCCCCc1nnc(Nc2ccccc2)o1", "diameter of the inhibition zone (DIZ), mm": 17.5}
{"Compound": "C=CCCCCCCCCc1nnc(Nc2ccccc2)o1", "diameter of the inhibition zone (DIZ), mm": 19.8}
{"Compound": "CCCCC/C=C\\CC[C@H](O)CCCCCCCc1nnc(Nc2ccccc2)o1", "diameter of the inhibition zone (DIZ), mm": 21.6}
{"Compound": "CCCCCCC(O)C/C=C\\CCCCCCCc1nnc(Nc2ccccc2)s1 (stereo not drawn)", "diameter of the inhibition zone (DIZ), mm": 25.5}
{"Compound": "C=CCCCCCCCCc1nnc(Nc2ccccc2)s1", "diameter of the inhibition zone (DIZ), mm": 15.2}
{"Compound": "CCCCCCCC/C=C\\CCCCCCCc1nnc(Nc2ccccc2)s1", "diameter of the inhibition zone (DIZ), mm": 14.8}
{"Compound": "CCCCC/C=C\\CCC(O)CCCCCCCc1nnc(Nc2ccccc2)s1 (stereo not drawn)", "diameter of the inhibition zone (DIZ), mm": 22.9}
{"Compound": "CCCCCC[C@@H](O)C/C=C\\CCCCCCCc1nnc(Nc2ccccc2)o1", "diameter of the inhibition zone (DIZ), mm": 22.8}

* * *

System: Klebsiella pneumoniae
Run Description: Antibacterial activity against Klebsiella pneumoniae after 24 hrs by disc diffusion method
Format: functional
Readout Name: diameter of the inhibition zone (DIZ) (mm)

{"Compound": "CCCCCC[C@@H](O)C/C=C\\CCCCCCCc1nnc(Nc2ccccc2)o1", "Target": "Klebsiella pneumoniae", "Readout Name": "diameter of the inhibition zone (DIZ)", "Value Reported": 19.7}
{"Compound": "C=CCCCCCCCCc1nnc(Nc2ccccc2)s1", "Target": "Klebsiella pneumoniae", "Readout Name": "diameter of the inhibition zone (DIZ)", "Value Reported": 12.8}
{"Compound": "CCCCC/C=C\\CC[C@H](O)CCCCCCCc1nnc(Nc2ccccc2)o1", "Target": "Klebsiella pneumoniae", "Readout Name": "diameter of the inhibition zone (DIZ)", "Value Reported": 20.2}
{"Compound": "CCCCCCCC/C=C\\CCCCCCCc1nnc(Nc2ccccc2)s1", "Target": "Klebsiella pneumoniae", "Readout Name": "diameter of the inhibition zone (DIZ)", "Value Reported": 12.1}
{"Compound": "CCCCCCCC/C=C\\CCCCCCCc1nnc(Nc2ccccc2)o1", "Target": "Klebsiella pneumoniae", "Readout Name": "diameter of the inhibition zone (DIZ)", "Value Reported": 14.9}
{"Compound": "C=CCCCCCCCCc1nnc(Nc2ccccc2)o1", "Target": "Klebsiella pneumoniae", "Readout Name": "diameter of the inhibition zone (DIZ)", "Value Reported": 16.8}
{"Compound": "CCCCC/C=C\\CCC(O)CCCCCCCc1nnc(Nc2ccccc2)s1 (stereo not drawn)", "Target": "Klebsiella pneumoniae", "Readout Name": "diameter of the inhibition zone (DIZ)", "Value Reported": 19.9}
{"Compound": "CCCCCCC(O)C/C=C\\CCCCCCCc1nnc(Nc2ccccc2)s1 (stereo not drawn)", "Target": "Klebsiella pneumoniae", "Readout Name": "diameter of the inhibition zone (DIZ)", "Value Reported": 22.7}
